A collection of compounds and their measured Lesion Area (measured area of vascular permeability)
tested on: VEGF 165-induced vascular permeability; experiment: Inhibition of Vascular Permeability Assay (Miles Assay); format: in vivo, BALB/c female mice; settings: 100 mg/kg, PO, 4 hr prior to VEGF
Where a name gives a salt, the structure may show the parent alone.
Give your result in mm^2 as a bare value.

Examples from the recorded data:
COc1ccc(/C=C/C(=O)Nc2cc3c(cc2S(=O)(=O)O)-c2cc(S(=O)(=O)O)c(NC(=O)/C=C/c4ccc(OC)c(OC)c4Cl)cc2S3(=O)=O)c(Cl)c1OC [Example 27, disodium salt] ... 58.5
O=C(C=Cc1ccc(-c2ccccc2)cc1)Nc1cc2c(cc1S(=O)(=O)O)-c1cc(S(=O)(=O)O)c(NC(=O)C=Cc3ccc(-c4ccccc4)cc3)cc1S2(=O)=O [Example 24, disodium salt] ... 23.1

Consider the additional compound presented here.
So what's the measured Lesion Area (measured area of vascular permeability) for this one? COc1ccc(/C=C/C(=O)Nc2cc3c(cc2S(=O)(=O)O)-c2cc(S(=O)(=O)O)c(NC(=O)/C=C/c4ccc(OC)cc4)cc2S3(=O)=O)cc1 [Example 30, disodium salt] 52.9
